Recorded pKi for the following molecules
- TESTED_ON: human recombinant dopamine D3 receptor (Homo sapiens (Human), UniProt P35462)
- Sequence (P35462 whole entry): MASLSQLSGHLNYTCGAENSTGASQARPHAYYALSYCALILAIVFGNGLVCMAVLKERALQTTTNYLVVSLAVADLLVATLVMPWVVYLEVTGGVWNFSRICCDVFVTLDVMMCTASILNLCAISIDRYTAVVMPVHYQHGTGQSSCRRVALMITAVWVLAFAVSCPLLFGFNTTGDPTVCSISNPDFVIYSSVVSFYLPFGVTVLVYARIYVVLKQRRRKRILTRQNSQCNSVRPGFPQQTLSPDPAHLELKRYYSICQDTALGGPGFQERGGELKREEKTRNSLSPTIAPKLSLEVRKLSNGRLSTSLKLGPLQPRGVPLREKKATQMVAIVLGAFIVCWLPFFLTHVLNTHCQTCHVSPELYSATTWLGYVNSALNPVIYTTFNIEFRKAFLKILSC
- MEASUREMENT_PROTOCOL: Test of binding inhibition for dopamine D3 receptor ([3H]-Methylspiperone SPA)
- EXPERIMENTAL_SETUP: Jump-In HEK cell membranes, 2 nM [3H]-Methylspiperone, 120 min at 25° C.; read-out: hD3_Ki
// pKi here means minus log10 of the molar concentration (mol/L)

[
  {
    "GIVEN_SMILES": "Cn1c(C(=O)N[C@H]2CC[C@](F)(CCN3CCc4nc(OCC(F)(F)F)sc4CC3)CC2)cccc1=O",
    "pKi": 9.23
  },
  {
    "GIVEN_SMILES": "Cc1ncc(/C=C/C(=O)N[C@H]2CC[C@H](CCN3CCc4ccc(OCC(F)F)nc4CC3)CC2)cn1",
    "pKi": 9.77
  },
  {
    "GIVEN_SMILES": "Cc1cc(CC(=O)N[C@H]2CC[C@](F)(CCN3CCc4ccc(CCC(F)(F)F)nc4CC3)CC2)on1",
    "pKi": 10.54
  },
  {
    "GIVEN_SMILES": "Cn1cc(CC(=O)N[C@H]2CC[C@H](CCN3CCc4nc(OCCC(F)(F)F)sc4CC3)CC2)cn1",
    "pKi": 9.52
  },
  {
    "GIVEN_SMILES": "Cn1cc2c(C(=O)N[C@H]3CC[C@H](CCN4CCc5ccc(CCC(F)(F)F)nc5CC4)CC3)ccc(F)c2n1",
    "pKi": 9.96
  },
  {
    "GIVEN_SMILES": "Cc1cnc(OCC(=O)N[C@H]2CC[C@H](CCN3CCc4ccc(CCC(F)(F)F)nc4CC3)CC2)cn1",
    "pKi": 9.37
  }
]

// switching to the query molecule
[Q] Look up and state reported pKi for Cc1ncccc1C(=O)N[C@H]1CC[C@H](CCN2CCc3nc(OCC(C)(F)F)sc3CC2)CC1
[A] 9.44

* * *

- TESTED_ON: human recombinant dopamine D2 receptor (Homo sapiens (Human))
- Sequence (P14416 whole entry): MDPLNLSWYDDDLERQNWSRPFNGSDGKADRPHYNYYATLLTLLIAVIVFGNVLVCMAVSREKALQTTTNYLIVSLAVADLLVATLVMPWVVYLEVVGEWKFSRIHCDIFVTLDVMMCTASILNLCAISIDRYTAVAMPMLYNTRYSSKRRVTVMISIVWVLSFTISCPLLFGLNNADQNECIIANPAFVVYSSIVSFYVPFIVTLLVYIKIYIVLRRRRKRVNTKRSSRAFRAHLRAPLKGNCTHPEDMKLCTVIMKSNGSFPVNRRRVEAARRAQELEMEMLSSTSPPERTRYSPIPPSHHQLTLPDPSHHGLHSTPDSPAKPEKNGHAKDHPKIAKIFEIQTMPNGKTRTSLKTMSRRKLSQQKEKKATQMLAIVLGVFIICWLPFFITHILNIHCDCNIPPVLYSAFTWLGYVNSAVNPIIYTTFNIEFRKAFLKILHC
- MEASUREMENT_PROTOCOL: Test of binding inhibition for dopamine D2 receptor ([3H]-Methylspiperone SPA)
- EXPERIMENTAL_SETUP: [3H]-Methylspiperone 1.2 nM, Jump-In HEK cell membranes; read-out: hD2_Ki
Labelling field: enter 1 if recorded Ki is less than 1000 nM. Enter -1 if it equals or exceeds that cut-off.

Worked set:
[
  {
    "GIVEN_SMILES": "Cc1ncccc1C(=O)NC12CCC(CCN3CCc4ccc(OCC(F)F)nc4CC3)(CC1)CC2",
    "ASSIGNED_CATEGORY": -1
  },
  {
    "GIVEN_SMILES": "Cn1ncc(CC(=O)N[C@H]2CC[C@H](CCN3CCc4nc(OCC(C)(F)F)sc4CC3)CC2)c1F",
    "ASSIGNED_CATEGORY": 1
  },
  {
    "GIVEN_SMILES": "Cc1ncc(CC(=O)NC23CCC(CCN4CCc5nc(OCC(F)(F)F)sc5CC4)(CC2)CC3)cn1",
    "ASSIGNED_CATEGORY": -1
  },
  {
    "GIVEN_SMILES": "Cn1cc(CC(=O)N[C@H]2CC[C@](F)(CCN3CCc4nc(OCC(F)F)sc4CC3)CC2)c(F)n1",
    "ASSIGNED_CATEGORY": -1
  },
  {
    "GIVEN_SMILES": "Cn1ncc(CC(=O)N[C@H]2CC[C@H](CCN3CCc4nc(OCC(F)(F)F)sc4CC3)CC2)n1",
    "ASSIGNED_CATEGORY": 1
  },
  {
    "GIVEN_SMILES": "Cc1cc(CC(=O)N[C@H]2CC[C@H](CCN3CCc4ccc(CCC(F)(F)F)nc4CC3)CC2)no1",
    "ASSIGNED_CATEGORY": -1
  }
]

[Q] Bench note: check whether Cn1cc(CC(=O)N[C@H]2CC[C@](F)(CCN3CCc4nc(OCC(F)(F)F)sc4CC3)CC2)c(F)n1 shows Ki below 1000 nM
[A] 1

meta.source: patent US11578084B2
